- System: Leptinotarsa decemlineata
- assayName: Insecticidal activity against third-instar larval stage of Leptinotarsa decemlineata infested potato leaves assessed as mortality at 10 mg after 12 hr relative to control
- Assay type: functional
measuredProperty: mortality (%)
// units = %; emit number, no label

Problem: Retrieve mortality measured for CC1CCC(C(C)C)C(O)C1 (stereo not drawn) [MENTHOL] and print it.
Solution: 20

Problem: Retrieve mortality measured for CC12CCC(C1)C(C)(C)C2=O (stereo not drawn) [FENCHONE] and print it.
Solution: 56.7

Problem: Retrieve mortality measured for CC12CCC(C1)C(C)(C)C2O (stereo not drawn) [FENCHYL ALCOHOL] and print it.
Solution: 10

Problem: Retrieve mortality measured for C=C1C2CCC(C2)C1(C)C (stereo not drawn) [CAMPHENE] and print it.
Solution: 0

Problem: Retrieve mortality measured for CC1=CC[C@@H](C(C)(C)O)CC1 [ALPHA-TERPINEOL] and print it.
Solution: 0

Problem: Retrieve mortality measured for CC(C)[C@H]1CC[C@@H](C)C[C@@H]1O [ISOMENTHOL] and print it.
Solution: 0

Problem: Retrieve mortality measured for CC12CCC(CC1=O)C2(C)C (stereo not drawn) [CAMPHOR] and print it.
Solution: 0

Problem: Retrieve mortality measured for CC1(C)C2CCC1(C)C(O)C2 (stereo not drawn) [BORNEOL] and print it.
Solution: 0

* * *

- System: Leptinotarsa decemlineata
- assayName: Insecticidal activity against adult Leptinotarsa decemlineata infested potato leaves assessed as mortality at 10 ul after 24 hr relative to control
- Format: functional
Lab note: anything with mortality at or over 30% counts as true; the rest go in false.

Problem: Determine whether this molecule has mortality no lower than 30%: CC(=O)OC/C=C(\C)CCC=C(C)C [GERANYL ACETATE]
Solution: false

Problem: Determine whether this molecule has mortality no lower than 30%: CC(C)=CCC/C(C)=C\CO
Solution: false

Problem: Determine whether this molecule has mortality no lower than 30%: CC(C)=CCCC(C)CCO (configuration not stated)
Solution: false

Problem: Determine whether this molecule has mortality no lower than 30%: C/C=C(C)/C=C/C=C(C)C
Solution: false

Problem: Determine whether this molecule has mortality no lower than 30%: CC1=CCC2CC1C2(C)C (configuration not stated)
Solution: true

Problem: Determine whether this molecule has mortality no lower than 30%: C=C(C)C1CC=C(C)C(=O)C1 (configuration not stated)
Solution: false

Problem: Determine whether this molecule has mortality no lower than 30%: CC(C)[C@H]1CC[C@H](C)CC1=O (relative stereo)
Solution: true

Problem: Determine whether this molecule has mortality no lower than 30%: CC1=CCC(O)(C(C)C)CC1 (configuration not stated)
Solution: true

Problem: Determine whether this molecule has mortality no lower than 30%: C=CC(C)(CCC=C(C)C)OC(C)=O (configuration not stated) [LINALYL ACETATE]
Solution: false

Problem: Determine whether this molecule has mortality no lower than 30%: CC1=CCC(C(C)C)=CC1
Solution: true

Problem: Determine whether this molecule has mortality no lower than 30%: C=C1CCC2CC1C2(C)C (configuration not stated)
Solution: true

* * *

- Tested on: Leptinotarsa decemlineata
- assayName: Insecticidal activity against first-instar larval stage of Leptinotarsa decemlineata infested potato leaves assessed as mortality at 20 ul after 24 hr relative to control
- Assay type: functional
measuredProperty: mortality (%)
// units = %; emit number, no label

Problem: Retrieve mortality measured for CC(C)=CCC[C@@H](C)CC=O and print it.
Solution: 76.7

Problem: Retrieve mortality measured for CC(=O)OC/C=C(/C)CCC=C(C)C [NERYL ACETATE] and print it.
Solution: 10

Problem: Retrieve mortality measured for C=C(C)C1CCC2(C)OC2C1 (stereo unspecified) [LIMONENE OXIDE] and print it.
Solution: 93.3

Problem: Retrieve mortality measured for CC1=CCC2CC1C2(C)C (stereo unspecified) and print it.
Solution: 43.3

Problem: Retrieve mortality measured for CC(C)=CCC/C(C)=C\CO and print it.
Solution: 16.7

Problem: Retrieve mortality measured for C=C(C)[C@@H]1CC[C@@H](C)C(=O)C1 [DIHYDROCARVONE] and print it.
Solution: 50

Problem: Retrieve mortality measured for CC12CCC(CC1)C(C)(C)O2 and print it.
Solution: 100

Problem: Retrieve mortality measured for C=C(C)[C@H]1CC=C(C)CC1 and print it.
Solution: 76.7

Problem: Retrieve mortality measured for CC(=O)OC/C=C(\C)CCC=C(C)C [GERANYL ACETATE] and print it.
Solution: 6.7

Problem: Retrieve mortality measured for C=CC(=C)CCC=C(C)C and print it.
Solution: 90

Problem: Retrieve mortality measured for C=C1CCC2CC1C2(C)C (stereo unspecified) and print it.
Solution: 100

Problem: Retrieve mortality measured for CC1=CCC(C(C)C)=CC1 and print it.
Solution: 100

Problem: Retrieve mortality measured for C=C(C)C1CC=C(C)C(=O)C1 (stereo unspecified) and print it.
Solution: 30

Problem: Retrieve mortality measured for CC(C)=CCCC(C)CCO (stereo unspecified) and print it.
Solution: 3.3

Problem: Retrieve mortality measured for CC1=CCC(O)(C(C)C)CC1 (stereo unspecified) and print it.
Solution: 86.7

Problem: Retrieve mortality measured for C=CC(C)CCC=C(C)C (stereo unspecified) and print it.
Solution: 100

Problem: Retrieve mortality measured for CC1=CCC2C(C1)C2(C)C (stereo unspecified) and print it.
Solution: 70

Problem: Retrieve mortality measured for C=CC(C)(CCC=C(C)C)OC(C)=O (stereo unspecified) [LINALYL ACETATE] and print it.
Solution: 63.3

Problem: Retrieve mortality measured for C=CC(C)(O)CCC=C(C)C (stereo unspecified) and print it.
Solution: 93.3

Problem: Retrieve mortality measured for C/C=C(C)/C=C/C=C(C)C and print it.
Solution: 33.3

Problem: Retrieve mortality measured for CC(C)[C@H]1CC[C@H](C)CC1=O (relative stereo) and print it.
Solution: 53.3
